target: Tyk2 (Homo sapiens (Human), UniProt P29597); experiment: pSTAT4 Cell Assay (MSD, NK92 cells); format: cell-based; details: MSD
Sequence (P29597 whole entry): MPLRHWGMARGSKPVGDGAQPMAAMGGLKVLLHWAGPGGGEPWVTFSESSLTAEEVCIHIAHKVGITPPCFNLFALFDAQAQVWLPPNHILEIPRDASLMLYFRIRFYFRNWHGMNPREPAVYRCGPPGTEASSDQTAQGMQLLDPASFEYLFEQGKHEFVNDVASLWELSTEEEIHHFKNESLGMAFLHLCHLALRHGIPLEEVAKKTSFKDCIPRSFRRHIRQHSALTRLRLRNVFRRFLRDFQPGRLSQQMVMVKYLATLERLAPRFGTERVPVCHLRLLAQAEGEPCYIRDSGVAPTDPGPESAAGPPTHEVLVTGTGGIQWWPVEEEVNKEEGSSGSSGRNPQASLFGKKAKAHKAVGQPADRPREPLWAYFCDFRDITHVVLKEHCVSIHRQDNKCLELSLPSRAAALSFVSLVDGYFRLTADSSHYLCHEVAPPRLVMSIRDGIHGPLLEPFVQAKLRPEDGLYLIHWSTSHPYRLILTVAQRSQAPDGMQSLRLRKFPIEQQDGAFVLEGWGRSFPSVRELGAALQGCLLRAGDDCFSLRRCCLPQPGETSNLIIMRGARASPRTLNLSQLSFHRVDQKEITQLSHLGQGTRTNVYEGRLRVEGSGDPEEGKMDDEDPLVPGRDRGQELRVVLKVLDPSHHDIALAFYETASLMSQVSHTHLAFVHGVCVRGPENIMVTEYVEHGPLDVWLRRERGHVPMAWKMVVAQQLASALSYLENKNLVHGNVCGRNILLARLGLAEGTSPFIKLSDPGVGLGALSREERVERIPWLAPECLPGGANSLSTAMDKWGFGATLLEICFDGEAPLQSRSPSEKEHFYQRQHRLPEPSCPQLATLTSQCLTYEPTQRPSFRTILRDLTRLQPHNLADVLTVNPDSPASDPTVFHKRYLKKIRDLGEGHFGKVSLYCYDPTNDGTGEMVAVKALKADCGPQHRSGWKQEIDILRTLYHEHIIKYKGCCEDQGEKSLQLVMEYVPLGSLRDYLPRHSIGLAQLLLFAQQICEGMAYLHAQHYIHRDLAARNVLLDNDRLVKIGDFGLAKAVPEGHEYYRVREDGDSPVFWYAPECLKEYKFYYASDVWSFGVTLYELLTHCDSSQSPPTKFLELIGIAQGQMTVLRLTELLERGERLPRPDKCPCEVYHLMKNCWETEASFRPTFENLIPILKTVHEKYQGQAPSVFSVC
pIC50: −log10 of the molar value. Where a name gives a salt, the structure may show the parent alone.
assay.endpoint: pIC50

[[record]]
molecule = "CC(=O)Nc1cc(Nc2cc(C)nc(C(C)(F)F)n2)c(-c2ncc3c(n2)COC3)cn1"
value_observed = "7.00 to 8.00"

[[record]]
molecule = "COc1cnc(NC(C)=O)cc1Nc1cc(-c2cn[nH]c2F)nc(C(C)(F)F)n1"
value_observed = "6.00 to 7.00"

[[record]]
molecule = "COCc1ccc(-c2cnc(NC(C)=O)cc2Nc2nc(C(C)(F)F)ncc2OC)nc1"
value_observed = "≥ 8.00"

[[record]]
molecule = "COCc1cc(-c2cnc(NC(C)=O)cc2Nc2cc(C)nc(C(C)(F)F)n2)ncn1"
value_observed = "7.00 to 8.00"

[[record]]
molecule = "CCOc1cnc(NC(C)=O)cc1Nc1cc(O[C@H]2C[C@@H](F)C2)nc(C(C)(F)F)n1"
value_observed = "≥ 8.00"

[[record]]
molecule = "COCCOc1cnc(NC(C)=O)cc1Nc1nc(C)cc(C(C)(F)F)n1"
value_observed = "7.00 to 8.00"

[[record]]
molecule = "CC(=O)Nc1cc(Nc2cc(C3CC3)nc(C(C)(F)F)n2)c(-c2ccn(C)n2)cn1"
value_observed = "≥ 8.00"

[[record]]
molecule = "CC(=O)Nc1cc(Nc2cc(C)nc(C(C)(F)F)n2)c(Oc2ccnc(C(F)(F)F)n2)cn1"
value_observed = "≤ 6.00"

[[record]]
molecule = "CC(=O)Nc1cc(Nc2cc(C)nc(C(C)(F)F)n2)c(OCC(C)(C)F)cn1"
value_observed = "7.00 to 8.00"

[[record]]
molecule = "CCOc1cnc(NC(C)=O)cc1Nc1cc(-c2cnn(C(=O)OC(C)(C)C)c2)nc(C(C)(F)F)n1"
value_observed = "7.00 to 8.00"

[[record]]
molecule = "CC(=O)Nc1cc(Nc2cc(C)nc(C(C)(F)F)n2)c(-c2ccn3nccc3n2)cn1"
value_observed = "≥ 8.00"

[[record]]
molecule = "COCCOc1cnc(NC(C)=O)cc1Nc1cccc(C(F)CF)n1 (stereo not drawn)"
value_observed = "7.00 to 8.00"

[[record]]
molecule = "CCc1cc(Nc2cc(NC(C)=O)ncc2OCCOC(F)F)nc(C(C)(F)F)n1"
value_observed = "≥ 8.00"

[[record]]
molecule = "CC(=O)Nc1cc(Nc2cc(C)nc(C(C)(F)F)n2)c(-c2ccn(C(C)C)n2)cn1"
value_observed = "≥ 8.00"

[[record]]
molecule = "COc1cnc(NC(C)=O)cc1Nc1cc(-c2cc(F)c3nc(C)cn3c2)nc(C(C)(F)F)n1"
value_observed = "7.00 to 8.00"

[[record]]
molecule = "CO[C@H]1CC[C@@H](Oc2cnc(NC(C)=O)cc2Nc2cc(C)nc(C(C)(F)F)n2)C1"
value_observed = "7.00 to 8.00"

[[record]]
molecule = "COc1ccc(-c2cc(Nc3cc(NC(C)=O)ncc3OC)nc(C(C)(F)F)n2)cn1 [Example 391]"
value_observed = "7.00 to 8.00"

[[record]]
molecule = "CC(=O)Nc1cc(Nc2cc(C)nc(C(C)(F)F)n2)c(OCC2COCC3(CCC3)O2)cn1 (stereo not drawn)"
value_observed = "7.00 to 8.00"

[[record]]
molecule = "COCCOc1cnc(NC(C)=O)cc1Nc1cc(OC2CC2)nc(C(C)(F)F)n1"
value_observed = "≥ 8.00"

[[record]]
molecule = "CCOc1cnc(NC(C)=O)cc1Nc1cc(-c2cnn(CCN(C)C)c2)nc(C(C)(F)F)n1"
value_observed = "7.00 to 8.00"

[[record]]
molecule = "CCc1cc(-c2cnc(NC(C)=O)cc2Nc2cc(C)nc(C(C)(F)F)n2)ncn1"
value_observed = "7.00 to 8.00"

[[record]]
molecule = "CC(=O)Nc1cc(Nc2cc(C)nc(C(C)(F)F)n2)c(-c2nccc(N3CCOCC3)n2)cn1"
value_observed = "≤ 6.00"

[[record]]
molecule = "CC(=O)Nc1cc(Nc2cc(C)nc(C(C)(F)F)n2)c(C(F)(F)C2CC2)cn1"
value_observed = "≥ 8.00"

[[record]]
molecule = "CC(=O)Nc1cc(Nc2cccc(C(C)(F)F)n2)c(-c2ccn(C)n2)cn1"
value_observed = "≥ 8.00"

[[record]]
molecule = "CC(=O)Nc1cc(Nc2ccnc(C(C)(F)F)n2)c(-c2ccc(N(C)C)cn2)cn1"
value_observed = "≥ 8.00"

[[record]]
molecule = "CC(=O)Nc1cc(Nc2cc(C)nc(C(C)(F)F)n2)c(OCCc2ccccn2)cn1"
value_observed = "7.00 to 8.00"

[[record]]
molecule = "CC(=O)Nc1cc(Nc2cc(C)nc(C3(F)CC3)n2)c(-c2ccn(C)n2)cn1"
value_observed = "≥ 8.00"

[[record]]
molecule = "CC(=O)Nc1cc(Nc2cc(C)nc(C(C)(F)F)n2)c(OC2CCN(C)C2)cn1 (stereo not drawn)"
value_observed = "6.00 to 7.00"

[[record]]
molecule = "COC(C)COc1cnc(NC(C)=O)cc1Nc1cc(C)nc(C(C)(F)F)n1 (stereo not drawn)"
value_observed = "7.00 to 8.00"

[[record]]
molecule = "CC(=O)Nc1cc(Nc2cc(C)nc(C(C)(F)F)n2)c(-c2cc(C)n(C)n2)cn1"
value_observed = "≥ 8.00"

[[record]]
molecule = "CCOc1cnc(NC(C)=O)cc1Nc1cc(OCCOC)nc(C(C)(F)F)n1"
value_observed = "7.00 to 8.00"

[[record]]
molecule = "CCOc1cnc(NC(C)=O)cc1Nc1cc(F)nc(C(C)(F)F)n1 [Example 94, trifluoroacetate]"
value_observed = "7.00 to 8.00"

[[record]]
molecule = "[2H]C([2H])([2H])C([2H])([2H])Oc1cnc(NC(C)=O)cc1Nc1cc(OC2CC2)nc(C(C)(F)F)n1"
value_observed = "≥ 8.00"


FYI, the data here is from patent US20260028365A1.
